# Subject Of Test: T1, human IL-8 (human, UniProt P10145 23-99, limits assumed)
# T1 construct: also called hIL-8; hIL8
# Experiment Description: SPR Biacore T200, Protein A/G capture, pH 7.4, 40C;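 note: antibodies captured via Protein A/G, which was amine-coupled to a CM4 sensor chip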
pKd: −log10 of the molar value.
// values below are reported pKd
Readout Kind: pKd

H1000/L0395 (antibody, human IgG1, kappa, name in Kabat numbering, V domains shown) VH: QVQLVESGGGLVQPGGSLRLSCAASGFTFSEYYLSWVRQAPGKGLEWVGLIRNKDNHHTPEYSASVKGRFTISRDDSKNSLYLTMSDLKTEDTAVYYCARENHRYDVELAYWGQGTLVTVSS VL: DIQMTQSPSSLSASVGDRVTITCRASEIIYSYLAWYQQKPGKAPKLLIYKAKTHADGVPSRFSGSGSGTDFTFTISSLQPEDIATYYCKHHFGFPRTFGQGTKVEIKR; 9.85
H1032/L0395 (antibody, human IgG1, kappa, name in Kabat numbering, V domains shown) VH: QVQLVESGGGLVQPGGSLRLSCAASGFTFDKYYLSWVRQAPGKGLEWVGLIRNKDNGYHPEYSASVKGRFTISRDDSKNSLYLTMSDLKTEDTAVYYCARENHRYDVELAYWGQGTLVTVSS VL: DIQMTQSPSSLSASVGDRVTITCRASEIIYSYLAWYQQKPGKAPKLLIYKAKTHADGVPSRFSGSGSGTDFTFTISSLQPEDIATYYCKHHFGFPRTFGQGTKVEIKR; 10.38
H1046/L0395 (antibody, human IgG1, kappa, name in Kabat numbering, V domains shown) VH: QVQLVESGGGLVQPGGSLRLSCAASGFTFSEYYLSWVRQAPGKGLEWVGLIRNKDNYHHPEYSASVKGRFTISRDDSKNSLYLTMSDLKTEDTAVYYCARENHRYDVELAYWGQGTLVTVSS VL: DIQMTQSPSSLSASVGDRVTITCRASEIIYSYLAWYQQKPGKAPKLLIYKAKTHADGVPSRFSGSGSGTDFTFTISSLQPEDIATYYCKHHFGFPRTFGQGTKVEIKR; 9.74
H1029/L0395 (antibody, human IgG1, kappa, name in Kabat numbering, V domains shown) VH: QVQLVESGGGLVQPGGSLRLSCAASGFTFDKYYLSWVRQAPGKGLEWVGLIRNKDNHHTPEYSASVKGRFTISRDDSKNSLYLTMSDLKTEDTAVYYCARENHRYDVELAYWGQGTLVTVSS VL: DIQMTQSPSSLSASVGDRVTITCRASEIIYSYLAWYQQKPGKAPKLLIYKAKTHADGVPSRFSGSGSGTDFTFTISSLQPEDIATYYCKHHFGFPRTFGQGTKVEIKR; 10.07
H0932/L0395 (antibody, name in Kabat numbering, V domains shown) VH: QVQLVESGGGLVQPGGSLRLSCAASGFTFSDYYLSWVRQAPGKGLEWVGLIRNKDNHHTPEYSASVKGRFTISRDDSKNSLYLTMSDLKTEDTAVYYCARENHRYDVELAYWGQGTLVTVSS VL: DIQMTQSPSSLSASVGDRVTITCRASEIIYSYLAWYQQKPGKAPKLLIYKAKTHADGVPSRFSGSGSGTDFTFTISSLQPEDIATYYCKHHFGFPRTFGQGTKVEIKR; 9.80
